Where do the numbers come from? From paper PMC11274883.

- Tested on: HT29 cells
- ASSAY DETAILS: Western blot protein expression
- Format: cell-based
- APPLIED CONDITIONS: HT29, IC50, 72 h, representative blot Figure S30G
TEST READOUT: Cleaved caspase 3/GAPDH normalized to control (1)
Note: the reply should be a number with no unit written.

N.N.[Cl][Pt][Cl] [Cisplatin, cisplatin]: 11.81

GET /values?readout=Cleaved caspase 3/GAPDH normalized to control (1)&system=HT29 cells&item= Cc1cc2cccnc2c2ncccc12.N[C@H]1CCCC[C@@H]1N.O=[N+]([O-])[O-].O=[N+]([O-])[O-].[Pt+2] [Pt^II5MESS]
10.88

Then this compound: Cc1cc2cccnc2c2ncccc12.N[C@H]1CCCC[C@@H]1N.O=[N+]([O-])[O-].O=[N+]([O-])[O-].[OH][Pt+2][OH] [Pt^IV5MESS(OH)2]
7.887

Then this compound: Cc1c(C)c2cccnc2c2ncccc12.N[C@H]1CCCC[C@@H]1N.O=[N+]([O-])[O-].O=[N+]([O-])[O-].[OH][Pt+2][OH] [Pt^IV56MESS(OH)2]
1.746

Then this compound: N[C@H]1CCCC[C@@H]1N.O=[N+]([O-])[O-].O=[N+]([O-])[O-].[Pt+2].c1cnc2c(c1)ccc1cccnc12
17.46

Then this compound: Cc1c(C)c2cccnc2c2ncccc12.N[C@H]1CCCC[C@@H]1N.O=[N+]([O-])[O-].O=[N+]([O-])[O-].[Pt+2] [Pt^II56MESS]
5.099

Then this compound: N[C@H]1CCCC[C@@H]1N.O=[N+]([O-])[O-].O=[N+]([O-])[O-].[OH-].[OH-].[Pt+4].c1cnc2c(c1)ccc1cccnc12
1.017
